tested on: PPARg:RXRa IVT, anti-PPARg (NR concentration 270 nM, RXRa partner concentration 90 nM); assay: PBM binding z-score (relative to random genomic background probes); higher = stronger binding; sequences stand for … in GC…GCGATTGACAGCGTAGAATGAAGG
Give TRUE when the value for PBM binding z-score is at least 4. Give FALSE when it is less.

Form field: PBM binding z-score at least 4? Entry: ACTATTAGTTGAGACGAGGGCAAGCGATAGGTTG FALSE

Textbook exercise: given the entry CGAACGAGGGCATGAGTTGGTAGCAAATGCCGAT , state whether its PBM binding z-score is greater than or equal to 4. FALSE

In plain terms: is recorded PBM binding z-score at least 4 for TCTCGGAGGGCACGAAAGGTCAGAGCTCGACATC ? FALSE

Could you tell me if the measured PBM binding z-score of CCTACTGGGCCATTCAGAGGTCATTTATCATATG reaches 4 or more? TRUE

Evaluate CGTCAAAGTTCAACTTAGGTAACGTAAAGCACGC : PBM binding z-score at minimum 4? FALSE

Is PBM binding z-score at least 4? Consider ATCTCTTGGTAAAGATAGTTCAGTGAATGCAAAT FALSE

State whether the measured PBM binding z-score reaches 4, counting equality as reaching it, for TCTATTAGTTGAAAGGCAACCGACGAGTCCGTTT FALSE

Could you tell me if the measured PBM binding z-score of TGTCAAAGTTCAAATGTAACGTAAGTATCCACAC reaches 4 or more? TRUE

Identify whether the reported PBM binding z-score of the following sequence is 4 or greater: CCTTACGGGTCACTGATAGGTTATAGCATTTGGA FALSE

Form field: PBM binding z-score at least 4? Entry: ATATGTAGGTTACATCCGGGTCAATCAGGCTATG TRUE

Quick check, PBM binding z-score >= 4? GCATATAGGTCATACAAGGTGAAAGTCCGATTGT TRUE

Exam item: decide whether the reported PBM binding z-score for ACAAGTTGGTCAGCTGAGGTCACACACAATTCGG is at least 4. FALSE

In plain terms: is recorded PBM binding z-score at least 4 for ACTAGCAGGCCAAGTTTTGGTCACTCAAACAAAG ? FALSE

Please check the record CGTCCAATGTCAGCAGGTCAGTGAAAGCGACGTG and state if its PBM binding z-score is at or above 4. FALSE

Item TAGCCTAGGTCATTGGGCCAGTATGGTACGCATC with PBM binding z-score of 4 or above? FALSE

Would you say CGAACTAGGTCATCCAGGAAAGTGAATACATTGA shows PBM binding z-score at minimum 4? TRUE

Confirm if PBM binding z-score reported for the sequence GCTAGTTGGTCAGTAAAAGGTAACACACCGGTCG is 4 or above. FALSE

Hi, just wondering whether CGAACGAGGGCATGAGATGATAGCAAATGCCGAT shows PBM binding z-score of 4 or higher. FALSE

Please check the record ACTAGCAGGCCAAGTGTCACTCAAGATTAGTCCG and state if its PBM binding z-score is at or above 4. FALSE

Could you please find out whether GATACAGGGTCAGCTAGAGGCCAGAGTCTGGAAA has PBM binding z-score that meets 4 or exceeds it? FALSE

Decide: PBM binding z-score of TGAATTAGGTTATAAGATCAGGGAACGTTGCAAA >= 4? TRUE

Please tell me: is the sequence AGACTGAGGTTATACGTAGATCAGGGAAGAAAGT at or over 4 in terms of PBM binding z-score? FALSE

Decide: PBM binding z-score of ATACCAAGGTGATCCTGAGGTCGTTGATACTAAC >= 4? FALSE

Does the sequence TCTCGGAGGACACGAAAGGTCAGAGGTCGACATC have recorded PBM binding z-score that is 4 or more? FALSE

hey, is PBM binding z-score for this one >= 4? TCATATAGGTCAAGGTGAAAGTCGAACGATATGA TRUE

Hi team, for TAGCCTAGGTCATGCGGGCCAGTTTAGTGTCGGC , is the recorded PBM binding z-score at or above 4? FALSE

Textbook exercise: given the entry CGTCCAAGGTTAGAGAGGTCAGTGAATGCCGAGT , state whether its PBM binding z-score is greater than or equal to 4. FALSE

Could you please find out whether TCTTGTAGATCAACAGGAGGTTAGGAAAGATCGA has PBM binding z-score that meets 4 or exceeds it? FALSE

Confirm if PBM binding z-score reported for the sequence CCTATTAGTTGACTATAAGGGCAACCGAAGCTCG is 4 or above. FALSE

Given ATATGTAAGTTAGCTGGGGTCATTCAGACTAGGC , state whether its PBM binding z-score is at least 4. FALSE

# check: PBM binding z-score of CCTGACGGGTCACGAGGTTATAGCACGACGAGCG is greater than or equal to 4 FALSE

Exam item: decide whether the reported PBM binding z-score for ATCTAAAGGTCGAGGTGAGTATAGAGAAAGGGAA is at least 4. FALSE

For this sequence, is measured PBM binding z-score 4 or higher? ATCGAAAGGTGGTGAGGTGAGTATACAGAAAGGC FALSE

Quick check, PBM binding z-score >= 4? CCGAGTAGGTTATGGAGCATTCAGGCAACGGTGA FALSE

Record ACTAGCAGGCCAAGGGTCACTCACGATTAGTCCG ; criterion: PBM binding z-score no lower than 4. Met? FALSE

Check this sequence for PBM binding z-score at or above 4: CCAGACAGGTGAGAAGCTAACTCAGCCTCGATTA FALSE

Hi team, for AGACCGAGGGCACGCTGAGTTGATAGCAGAGTAG , is the recorded PBM binding z-score at or above 4? FALSE

Reported PBM binding z-score reaches at least 4 for AGAATGAGGATATTAAGATCAGGGAATTGCGGTC ? FALSE

Confirm if PBM binding z-score reported for the sequence GATACAGGGTCAGCTGGAGGCCAGAGTATGGAAA is 4 or above. FALSE

# check: PBM binding z-score of GCGACTGGGGCAAAGCAGGTCACCATAAGGTTGG is greater than or equal to 4 TRUE

Could you tell me if the measured PBM binding z-score of GCTATTTGGTCAGTAAAAGGTCACACACCGGTCG reaches 4 or more? FALSE

Quick check: does TAGCCTGGGTCATTCAGGGGCCAGTATAGAAAGC have PBM binding z-score greater than or equal to 4? FALSE

Check if PBM binding z-score >= 4 (inclusive). Item: CCTACTGGGCCACGAAATGTCATTGATTCAGTGA TRUE

Please indicate if the recorded PBM binding z-score for CGCGAAAGGTCGGTTGAGGTGAGTATACGGATAA meets or exceeds 4. FALSE

Does the sequence ATTACAGGGTCACTAGGCCAGAGTAGGTACGAAT have recorded PBM binding z-score that is 4 or more? TRUE

Please check the record CCTACTGGGCCACGAAAGGTTATTGATTCAGTGA and state if its PBM binding z-score is at or above 4. TRUE

Hi, just wondering whether ATATGTAGGTTACAGCCGGGTCATTCAGGCTATG shows PBM binding z-score of 4 or higher. TRUE

Has TCATATAGGTAATACTGGTGAAAGTCGGCATCTA a recorded PBM binding z-score greater than or equal to 4? FALSE

Check this sequence for PBM binding z-score at or above 4: GCGCGGAGGACAAGGTCAGAGCTTTGTCCGTAGA FALSE

Hello, I need to know if TTACCAAGGTGAAGGTCGTTGACCCCTCTGTAGA has measured PBM binding z-score not below 4. Thanks! FALSE
